Listing of recorded percent inhibition of viability by entry.
# Tested on: normal primary NK cells, pool 1 (3 donors) (IL-2 2.5 ng/mL)
# assay-details: percent inhibition of viability; higher = more inhibition;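 further: normalised to DMSO-only wells as negative and benzethonium chloride as positive control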
# details: 72 h; 1000 nM
Answer shape: numeric part, then the unit.

# molecule, tested-target, value
data = [
    ("Nc1ccccc1NC(=O)c1ccc(CNc2nccc(-c3cccnc3)n2)cc1 [Mocetinostat] (max concentration tested 10000 nM)", "normal primary NK cells, pool 1 (3 donors) (IL-2 2.5 ng/mL)", "47%"),
]

Exam item: Could you share which percent inhibition of viability value was measured for Cc1cc2c(F)c(Oc3ncnn4cc(OC[C@@H](C)O)c(C)c34)ccc2[nH]1 [Brivanib] (max concentration tested 1000 nM) ?
Marked response: -4.56%

Exam item: Could you share which percent inhibition of viability value was measured for CC(C)NC[C@@H](C(=O)N1CCN(c2ncnc3c2[C@H](C)C[C@H]3O)CC1)c1ccc(Cl)cc1 [GDC-0068] (max concentration tested 10000 nM) ?
Marked response: 4.21%

Exam item: Could you share which percent inhibition of viability value was measured for N#CCNC(=O)c1ccc(-c2ccnc(Nc3ccc(N4CCOCC4)cc3)n2)cc1 [Momelotinib] (max concentration tested 10000 nM) ?
Marked response: 65.5%

###

Listing of recorded percent inhibition of viability by entry.
# Tested on: NK-YS (IL-2 2.5 ng/mL)
# assay-details: percent inhibition of viability; higher = more inhibition
# details: 72 h; 100 nM
The answer is to be given in %; state only the numeric part.

Exam item: Hello, I am looking for reported percent inhibition of viability with NK-YS (IL-2 2.5 ng/mL) for Cc1cc2c(F)c(Oc3ncnn4cc(OC[C@@H](C)O)c(C)c34)ccc2[nH]1 [Brivanib] (max concentration tested 1000 nM) . Could you help?
Marked response: 0.88

Exam item: Hello, I am looking for reported percent inhibition of viability with NK-YS (IL-2 2.5 ng/mL) for Cc1cccc(-c2nn3c(c2-c2ccnc4ccc(C(N)=O)cc24)CCC3)n1 [Galunisertib] (max concentration tested 1000 nM) . Could you help?
Marked response: -3.29

Exam item: Hello, I am looking for reported percent inhibition of viability with NK-YS (IL-2 2.5 ng/mL) for CC1(COc2ccc3c(c2)ncn3-c2ccc3cccc(N4CCC(N)CC4)c3n2)COC1 [Crenolanib] (max concentration tested 10000 nM) . Could you help?
Marked response: -1.2

###

Listing of recorded percent inhibition of viability by entry.
# Test system: NK-YS (IL-2 2.5 ng/mL)
# assay-details: percent inhibition of viability; higher = more inhibition
# details: 72 h; 1000 nM
The answer is to be given in %; state only the numeric part.

Worked cases, percent inhibition of viability given:
# compound, percent inhibition of viability, %
records = [
    ("Clc1ccc(Nc2nnc(Cc3ccncc3)c3ccccc23)cc1 [Vatalanib] (max concentration tested 10000 nM)", 1.16),
    ("CC1(COc2ccc3c(c2)ncn3-c2ccc3cccc(N4CCC(N)CC4)c3n2)COC1 [Crenolanib] (max concentration tested 10000 nM)", 16.6),
    ("CC[C@]1(O)C[C@H]2CN(CCc3c([nH]c4ccccc34)[C@@](C(=O)OC)(c3cc4c(cc3OC)N(C=O)[C@H]3[C@@](O)(C(=O)OC)[C@H](OC(C)=O)[C@]5(CC)C=CCN6CC[C@]43[C@@H]65)C2)C1 [Vincristine] (max concentration tested 1000 nM)", 87.9),
    ("Cn1ncnc1[C@H]1c2n[nH]c(=O)c3cc(F)cc(c23)N[C@@H]1c1ccc(F)cc1 [Talazoparib] (max concentration tested 1000 nM)", 96.2),
]

Exam item: Could you share which percent inhibition of viability value was measured for CCN(CC)CCOc1ccc(C(=C(Cl)c2ccccc2)c2ccccc2)cc1 [Clomifene] (max concentration tested 10000 nM) ?
Marked response: 5.57
